Origin of the recorded values: patent US12391697B2

pIC50: −log10 of the molar value. Counter-ions that a name gives are not always drawn.
Assay read-out pIC50; system under study: BTK (Homo sapiens (Human), UniProt Q06187).
Sequence (Q06187 whole entry): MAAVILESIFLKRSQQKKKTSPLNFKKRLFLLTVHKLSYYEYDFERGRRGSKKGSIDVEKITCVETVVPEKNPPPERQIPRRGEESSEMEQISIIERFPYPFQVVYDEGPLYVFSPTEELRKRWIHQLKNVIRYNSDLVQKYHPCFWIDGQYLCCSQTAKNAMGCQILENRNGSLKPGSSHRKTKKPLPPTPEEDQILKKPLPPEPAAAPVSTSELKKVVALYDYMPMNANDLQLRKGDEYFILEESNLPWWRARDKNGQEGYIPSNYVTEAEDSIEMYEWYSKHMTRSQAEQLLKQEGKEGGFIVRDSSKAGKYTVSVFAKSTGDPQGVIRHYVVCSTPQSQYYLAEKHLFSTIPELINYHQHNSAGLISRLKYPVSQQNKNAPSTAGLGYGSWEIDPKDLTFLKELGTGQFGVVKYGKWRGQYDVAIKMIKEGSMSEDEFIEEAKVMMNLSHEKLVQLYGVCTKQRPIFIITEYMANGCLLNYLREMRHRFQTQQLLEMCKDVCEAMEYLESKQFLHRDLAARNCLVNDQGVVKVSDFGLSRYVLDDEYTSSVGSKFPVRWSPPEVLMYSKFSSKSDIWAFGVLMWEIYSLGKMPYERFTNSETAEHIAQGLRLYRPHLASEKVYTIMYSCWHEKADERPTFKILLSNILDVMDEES

Reference set, count: 6
Compound	Measured Value
CC(C)(C)c1nc(C(=O)NCc2ccc(-c3ncnn4cc(N5CCOCC5)cc34)cc2C(F)F)no1 [Example 220]	≥ 9.00
Cc1cc(-c2cc3c(-c4ccc(CNC(=O)c5noc(C(C)(C)C)n5)c(C)c4)ncnn3c2)cnn1 [Example 170]	≥ 9.00
Cc1cc(-c2ccnc3ccnn23)ccc1CNC(=O)c1noc(C(C)(C)C)n1 [Example 50]	8.00 to 9.00
Cc1cc(-c2ncnn3cc(-c4cnn(CC(F)F)c4)cc23)ccc1CNC(=O)c1nnn(C(C)(C)C)n1 [Example 146]	≥ 9.00
Cc1cc(-c2ncnn3cc(N4CCO[C@@H](C)C4)cc23)ccc1CNC(=O)c1nnn(C(C)(C)C)n1 (single isomer, unassigned) [Example 140]	8.00 to 9.00
Cc1cc(-c2ccnn3ccnc23)ccc1CNC(=O)c1noc(C(C)(C)C)n1 [Example 21, trifluoroacetate]	8.00 to 9.00

We now examine a further compound.
Identify measured pIC50 corresponding to Cc1cc(-c2ncnn3cc(-c4ccc(F)cc4)cc23)ccc1CNC(=O)c1noc(C(C)(C)C)n1 [Example 224]
≥ 9.00
